# target_system: BRD4 (Homo sapiens (Human))
# experiment: BRD4 DSF thermal shift (ΔTm)
# Type: binding
# details: Table 2
attribute_measured: BRD4 DSF (ΔTm) (°C)

Below are worked cases with known answers.
Cc1cnc(Nc2ccc(OCCN3CCCC3)cc2)nc1Nc1ccc2c(c1)N(S(=O)(=O)C(C)(C)C)CC2
11.0
Cc1cnc(Nc2cc(F)c(C3CCN(C)CC3)c(F)c2)nc1Nc1cccc(NS(=O)(=O)C(C)(C)C)c1
13.4
Cc1cnc(Nc2ccc(N3CCN(C)CC3)c(F)c2)cc1Nc1cccc(NS(=O)(=O)C(C)(C)C)c1
6.0
CN1CCC(c2ccc(Nc3ncc(C(N)=O)c(Nc4ccc(Cl)c(NS(=O)(=O)C(C)(C)C)c4)n3)cc2F)CC1
13.7

a: Cc1cnc(Nc2cc(F)c(C3CCN(C)CC3)cc2F)nc1Nc1ccc(Cl)c(NS(=O)(=O)C(C)(C)C)c1
b: Cc1cnc(Nc2ccc(C3CCN(C)CC3)c(F)c2)cc1Nc1cccc(NS(=O)(=O)C(C)(C)C)c1
Prompt: Returns: the label, a or b , whose recorded BRD4 DSF (ΔTm) is the lower number. The response must carry the label of the picked entry.
Completion: b
(b: 6.7 °C, a: 11.4 °C)
